Where do the numbers come from? From paper PMC9490236.

# conditionSet: PAMPA
Where a SMILES comes first, the peptide text is derived from it. [ ]: non-standard residue; d: D form. NMeF = CN[C@@H](Cc1ccccc1)C(=O)O; NMeL = CN[C@@H](CC(C)C)C(=O)O; dNMeL = CN[C@H](CC(C)C)C(=O)O; NMeA = CN[C@@H](C)C(=O)O; Nle = CCCC[C@H](N)C(=O)O; dNMeA = CN[C@H](C)C(=O)O
valueKind: PAMPA_R1

INSERT INTO assay_data (compound, numericvalue) VALUES
  ('CC(C)C[C@@H]1C(=O)N[C@@H](C)C(=O)N[C@H](CC(C)C)C(=O)N(C)[C@@H](C)C(=O)N2CCC[C@@H]2C(=O)N2CCC[C@@H]2C(=O)N2CCC[C@@H]2C(=O)N2CCC[C@H]2C(=O)N[C@H](C(C)C)C(=O)N(C)[C@@H](CC(C)C)C(=O)N1C [Design D10.28] (cyclo([dV][NMeL][dNMeL]A[dL][NMeA][dP][dP][dP]P))', '1.56E-07'),
  ('CCCC[C@@H]1NC(=O)[C@H](CC(C)C)NC(=O)[C@@H]2CCCN2C(=O)[C@H]2CCCN2C(=O)[C@@H](C)NC(=O)[C@H]2CCCN2C(=O)[C@@H](CC(C)C)NC(=O)[C@@H](C)N(C)C(=O)[C@H](CC(C)C)N(C)C(=O)[C@@H](C)N(C)C1=O [Design D10.40] (cyclo(L[Nle][dNMeA][NMeL][dNMeA][dL][dP][dA][dP]P))', '6.40E-07'),
  ('CC[C@H](C)[C@@H]1NC(=O)CNC(=O)[C@@H]2CCCN2C(=O)[C@H]2CCCN2C(=O)[C@H]([C@@H](C)CC)NC(=O)[C@@H](C)N(C)C(=O)[C@@H]2CCCN2C(=O)[C@H](C(C)C)NC(=O)[C@@H](CC(C)C)NC1=O [Design D9.33, DPRO PRO GLY ILE DLEU VAL PRO *DALA ILE] (cyclo(GI[dL]VP[dNMeA]I[dP]P))', '2.73E-07'),
  ('CC[C@@H](C)[C@H]1NC(=O)[C@@H](CC(C)C)NC(=O)[C@@H](CC(C)C)N(C)C(=O)[C@@H]2CCCN2C(=O)[C@@H](C(C)C)NC(=O)[C@H](CC(C)C)NC(=O)[C@@H](CC(C)C)N(C)C(=O)[C@@H]2CCCN2C1=O [Design D8.3.p1, DLEU DVAL PRO *DLEU DLEU DILE PRO *DLEU] (cyclo(L[dV]P[dNMeL][dL][dI]P[dNMeL]))', '5.23E-06'),
  ('CC[C@@H](C)[C@H]1NC(=O)[C@@H](CC(C)C)NC(=O)[C@@H]2CCCN2C(=O)[C@H]2CCCN2C(=O)[C@@H](C(C)C)NC(=O)[C@H](C)NC(=O)[C@@H]2CCCN2C(=O)[C@@H]([C@H](C)CC)NC(=O)[C@@H](C)N(C)C1=O [Design D9.23] (cyclo([dL][dI][dNMeA][dI]PA[dV][dP]P))', '1.37E-07'),
  ('CC[C@@H](C)[C@H]1NC(=O)[C@H](CC(C)C)N(C)C(=O)[C@H]2CCCN2C(=O)[C@H](CC(C)C)NC(=O)[C@H](Cc2ccccc2)N(C)C(=O)CN(C)C(=O)[C@@H](C(C)C)NC(=O)[C@H](C)NC(=O)[C@H]2CCCN2C(=O)[C@@H]2CCCN2C1=O (single isomer, unassigned) [Design D10.58.p1]', '3.35E-07'),
  ('CC[C@H](C)[C@@H]1NC(=O)[C@@H](CC(C)C)N(C)C(=O)[C@H](CC(C)C)N(C)C(=O)[C@@H](Cc2ccccc2)NC(=O)[C@@H](CC(C)C)N(C)C(=O)[C@H]2CCCN2C(=O)[C@H]2CCCN2C(=O)[C@@H]2CCCN2C(=O)[C@@H](C(C)C)NC(=O)[C@@H]2CCCN2C(=O)[C@H](C)NC1=O [Design D11.11] (cyclo(AP[dV]P[dP][dP][dNMeL][dF][NMeL][dNMeL]I))', '1.97E-06'),
  ('CC(C)C[C@@H]1NC(=O)[C@H](C(C)C)NC(=O)[C@@H](CC(C)C)N(C)C(=O)[C@H](C)NC(=O)[C@@H](CC(C)C)N(C)C(=O)[C@@H]2CCCN2C(=O)[C@H]2CCCN2C(=O)[C@H](C)N(C)C(=O)[C@H]2CCCN2C(=O)[C@@H](CC(C)C)NC1=O [Design D10.35] (cyclo([dNMeL]A[dNMeL]VL[dL][dP][NMeA][dP]P))', '5.25E-07'),
  ('C[C@H]1NC(=O)[C@@H](Cc2ccccc2)NC(=O)[C@H](Cc2ccccc2)N(C)C(=O)[C@H](Cc2ccccc2)N(C)C(=O)[C@@H](Cc2ccccc2)NC(=O)[C@H]2CCCN2C(=O)CNC(=O)[C@@H](C)NC(=O)[C@@H]2CCCN2C(=O)[C@@H](Cc2ccccc2)NC1=O [Design D10.62] (cyclo(G[dP][dF][NMeF][NMeF][dF][dA][dF]P[dA]))', '4.48E-06');

* * *

# assayRemarks: Pharmacokinetics and oral bioavailability of D11.2 in male SD rats (IV, PO, SQ)
# Assay type: in vivo
# conditionSet: male, Sprague Dawley, rat, plasma, po, 1 mg/kg, PO 1 mg/kg, Mean; read-out: Cmax
Where a SMILES comes first, the peptide text is derived from it. [ ]: non-standard residue; d: D form. NMeL = CN[C@@H](CC(C)C)C(=O)O; Sar = CNCC(=O)O
valueKind: Cmax (ng/mL)

INSERT INTO assay_data (compound, numericvalue) VALUES
  ('CC[C@@H](C)[C@H]1NC(=O)[C@@H]2CCCN2C(=O)[C@@H]([C@H](C)CC)NC(=O)CN(C)C(=O)[C@H](CC(C)C)NC(=O)[C@@H](Cc2ccccc2)NC(=O)[C@H](CC(C)C)N(C)C(=O)[C@H]2CCCN2C(=O)[C@@H](CC(C)C)NC(=O)[C@H](CC(C)C)NC(=O)[C@H]2CCCN2C1=O [Design D11.2] (cyclo(L[Sar][dI]P[dI][dP]L[dL][dP][NMeL][dF]))', 31.6);

* * *

# assayRemarks: Pharmacokinetics and oral bioavailability of D8.3.p1 and D10.1 in Balb/C female mice (PO, SQ, IV)
# Type: in vivo
# conditionSet: female, Balb/C, mouse, in vivo, sc, 5 mg/kg, Plasma level
Where a SMILES comes first, the peptide text is derived from it. [ ]: non-standard residue; d: D form. dNMeL = CN[C@H](CC(C)C)C(=O)O
valueKind: level at time molar at 1 h (nM)

INSERT INTO measurements (compound, numericvalue) VALUES
  ('CC[C@@H](C)[C@H]1NC(=O)[C@@H](CC(C)C)NC(=O)[C@@H](CC(C)C)N(C)C(=O)[C@@H]2CCCN2C(=O)[C@@H](C(C)C)NC(=O)[C@H](CC(C)C)NC(=O)[C@@H](CC(C)C)N(C)C(=O)[C@@H]2CCCN2C1=O [Design D8.3.p1, DLEU DVAL PRO *DLEU DLEU DILE PRO *DLEU] (cyclo(L[dV]P[dNMeL][dL][dI]P[dNMeL]))', 840);

* * *

# assayRemarks: Caco-2 permeability assay (apical to basolateral)
# Format: in vitro ADME, human
# conditionSet: Caco-2
Where a SMILES comes first, the peptide text is derived from it. [ ]: non-standard residue; d: D form. dNMeI = CC[C@@H](C)[C@@H](NC)C(=O)O; NMeL = CN[C@@H](CC(C)C)C(=O)O
Papp for assorted molecules
valueKind: Papp (×10⁻⁶ cm/s)

INSERT INTO results (molecule, numericvalue) VALUES
  ('CC[C@@H](C)[C@H]1NC(=O)[C@H]([C@@H](C)CC)NC(=O)[C@H](CC(C)C)N(C)C(=O)[C@H]2CCCN2C(=O)[C@@H]([C@H](C)CC)NC(=O)[C@@H]([C@H](C)CC)N(C)C(=O)[C@H](CC(C)C)NC(=O)[C@H]2CCCN2C(=O)[C@@H]2CCCN2C(=O)[C@H](C(C)C)NC(=O)[C@H]2CCCN2C1=O [Design D11.3] (cyclo(I[dI][dP]VP[dP]L[dNMeI][dI][dP][NMeL]))', 9.11),
  ('CC(C)C[C@@H]1NC(=O)[C@@H](CC(C)C)NC(=O)[C@H]2CCCN2C(=O)[C@H](CC(C)C)NC(=O)[C@@H](CC(C)C)NC(=O)[C@H](CC(C)C)NC(=O)[C@@H]2CCCN2C(=O)[C@@H](C)NC1=O [Design D8.1, DLEU LEU DPRO DLEU LEU DALA PRO LEU] (cyclo(L[dA]PL[dL]L[dP][dL]))', 23.3);
